Hello, the source for this data is patent US20260216348A1, in case you need it.

# testName: Pharmacokinetic experiment on SD rats (iv and intragastric)
# Type: in vivo
# experimentalConditions: Sprague-Dawley, rat, plasma, po, ig, 5.00 mg/kg

# molecule, AUC(0-inf)
records = [
    ("CN(C)c1cc2nn([C@H]3CC[C@H](CN4CC[C@@H](n5cc6cc(C7CCC(=O)NC7=O)c(F)cc6n5)[C@@H](F)C4)CC3)cc2cc1NC(=O)c1cnn2cccnc12 (stereo partly shown) [TM-135]", "2030 ng·h/mL"),
]

---

# testName: Pharmacokinetic experiment on SD rats (iv and intragastric)
# Assay type: in vivo
# experimentalConditions: Sprague-Dawley, rat, plasma, po, ig, 10.00 mg/kg
AUC(0-inf) reference

# molecule, AUC(0-inf) [ng·h/mL]
data = [
    ("CN(C)c1cc2nn([C@H]3CC[C@H](CN4C[C@@H](F)[C@@H](n5cc6cc(C7CCC(=O)NC7=O)c(F)cc6n5)C4)CC3)cc2cc1NC(=O)c1cnn2cccnc12 (stereo partly drawn) [TM-240]", 7990),
    ("CN(C)c1cc2nn([C@H]3CC[C@H](CN4C[C@H](F)[C@@H](n5cc6cc(C7CCC(=O)NC7=O)c(F)cc6n5)C4)CC3)cc2cc1NC(=O)c1cnn2cccnc12 (stereo partly drawn) [TM-249]", 9310),
    ("CN(C)c1cc2nn([C@H]3CC[C@H](CN4CCC(n5cc6c(F)cc(N7CCC(=O)NC7=O)cc6n5)CC4)CC3)cc2cc1NC(=O)c1cnn2cccnc12 [TM-174]", 4160),
    ("CN(C)c1cc2nn([C@H]3CC[C@H](CN4C[C@@H](F)[C@H](n5cc6cc(C7CCC(=O)NC7=O)c(F)cc6n5)C4)CC3)cc2cc1NC(=O)c1cnn2cccnc12 (stereo partly drawn) [TM-245]", 19000),
    ("CN(C)c1cc2nn([C@H]3CC[C@H](CN4C[C@@H](n5cc6cc(C7CCC(=O)NC7=O)c(F)cc6n5)[C@@H](F)C4)CC3)cc2cc1NC(=O)c1cnn2cccnc12 (stereo partly drawn) [TM-241]", 14900),
    ("CN(C)c1cc2nn([C@H]3CC[C@H](CN4C[C@@H](F)[C@H](n5cc6cc(C7CCC(=O)NC7=O)ccc6n5)C4)CC3)cc2cc1NC(=O)c1cnn2cccnc12 (stereo partly drawn) [TM-244]", 13200),
]
